Target: T1, human GIP receptor (human, UniProt P48546 22-466)
T1 sequence (looked up): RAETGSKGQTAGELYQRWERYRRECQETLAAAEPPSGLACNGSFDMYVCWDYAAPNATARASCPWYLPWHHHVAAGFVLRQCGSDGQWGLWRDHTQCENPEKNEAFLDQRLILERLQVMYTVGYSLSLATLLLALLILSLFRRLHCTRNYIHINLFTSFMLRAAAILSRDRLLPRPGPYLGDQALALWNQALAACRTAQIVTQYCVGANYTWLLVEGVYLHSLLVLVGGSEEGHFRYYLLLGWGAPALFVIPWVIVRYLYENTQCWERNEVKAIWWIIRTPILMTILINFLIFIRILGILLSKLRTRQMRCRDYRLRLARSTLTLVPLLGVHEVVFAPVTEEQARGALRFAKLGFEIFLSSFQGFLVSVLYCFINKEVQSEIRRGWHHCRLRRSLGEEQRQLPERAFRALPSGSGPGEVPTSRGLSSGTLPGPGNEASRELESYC
Test: cell-based or functional assay
Reported cAMP EC50 (1.0% HSA) by item:
Provide the reading as a plain figure in nM.

Here's what some known entries look like.
>>> measured_value("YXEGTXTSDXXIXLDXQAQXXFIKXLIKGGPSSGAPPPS (Y-Aib-EGT-αMeF(2F)-TSD-4Pal-Aib-I-αMeL-LD-Orn-QAQ-Aib-Orn-FIK((γ-Glu)-(2-[2-(2-Amino-ethoxy)-ethoxy]-acetyl)2-(γ-Glu)-(10-(4-carboxyphenoxy)decanoyl))-αMeY-LIK((γ-Glu)-(2-[2-(2-Amino-ethoxy)-ethoxy]-acetyl)2-(γ-Glu)-(10-(4-carboxyphenoxy)decanoyl))GGPSSGAPPPS-NH2) [Example 483]")
0.297
>>> measured_value("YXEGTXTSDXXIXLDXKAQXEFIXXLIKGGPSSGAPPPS (Y-Aib-EGT-αMeF(2F)-TSD-4Pal-Aib-I-αMeL-LD-Orn-K((2-[2-(2-Amino-ethoxy)-ethoxy]-acetyl)3-(γ-Glu)-CO-(CH2)10-CH3)AQ-Aib-EFI-(D-Glu)-αMeY-LIK((2-[2-(2-Amino-ethoxy)-ethoxy]-acetyl)3-(γ-Glu)-CO-(CH2)10-CH3)GGPSSGAPPPS-NH2) [Example 423]")
0.294

API: the following record is the query input.
# return recorded cAMP EC50 (1.0% HSA) for input YXEGTXTSDXXIXLDXKAQXEXIXXLIKGGPSSGAPPPS (Y-Aib-EGT-αMeF(2F)-TSD-4Pal-Aib-I-αMeL-LD-Orn-K((2-[2-(2-Amino-ethoxy)-ethoxy]-acetyl)3-(γ-Glu)-CO-(CH2)10-CH3)AQ-Aib-E-αMeF-I-(D-Glu)-αMeY-LIK((2-[2-(2-Amino-ethoxy)-ethoxy]-acetyl)3-(γ-Glu)-CO-(CH2)10-CH3)GGPSSGAPPPS-NH2) [Example 438]
0.592
